Values were extracted from patent US20070299072A1.

system: HERG (Homo sapiens)
Construct: expressed in transfected cells; host or cells: HEK cells
Sequence (Q12809 whole entry): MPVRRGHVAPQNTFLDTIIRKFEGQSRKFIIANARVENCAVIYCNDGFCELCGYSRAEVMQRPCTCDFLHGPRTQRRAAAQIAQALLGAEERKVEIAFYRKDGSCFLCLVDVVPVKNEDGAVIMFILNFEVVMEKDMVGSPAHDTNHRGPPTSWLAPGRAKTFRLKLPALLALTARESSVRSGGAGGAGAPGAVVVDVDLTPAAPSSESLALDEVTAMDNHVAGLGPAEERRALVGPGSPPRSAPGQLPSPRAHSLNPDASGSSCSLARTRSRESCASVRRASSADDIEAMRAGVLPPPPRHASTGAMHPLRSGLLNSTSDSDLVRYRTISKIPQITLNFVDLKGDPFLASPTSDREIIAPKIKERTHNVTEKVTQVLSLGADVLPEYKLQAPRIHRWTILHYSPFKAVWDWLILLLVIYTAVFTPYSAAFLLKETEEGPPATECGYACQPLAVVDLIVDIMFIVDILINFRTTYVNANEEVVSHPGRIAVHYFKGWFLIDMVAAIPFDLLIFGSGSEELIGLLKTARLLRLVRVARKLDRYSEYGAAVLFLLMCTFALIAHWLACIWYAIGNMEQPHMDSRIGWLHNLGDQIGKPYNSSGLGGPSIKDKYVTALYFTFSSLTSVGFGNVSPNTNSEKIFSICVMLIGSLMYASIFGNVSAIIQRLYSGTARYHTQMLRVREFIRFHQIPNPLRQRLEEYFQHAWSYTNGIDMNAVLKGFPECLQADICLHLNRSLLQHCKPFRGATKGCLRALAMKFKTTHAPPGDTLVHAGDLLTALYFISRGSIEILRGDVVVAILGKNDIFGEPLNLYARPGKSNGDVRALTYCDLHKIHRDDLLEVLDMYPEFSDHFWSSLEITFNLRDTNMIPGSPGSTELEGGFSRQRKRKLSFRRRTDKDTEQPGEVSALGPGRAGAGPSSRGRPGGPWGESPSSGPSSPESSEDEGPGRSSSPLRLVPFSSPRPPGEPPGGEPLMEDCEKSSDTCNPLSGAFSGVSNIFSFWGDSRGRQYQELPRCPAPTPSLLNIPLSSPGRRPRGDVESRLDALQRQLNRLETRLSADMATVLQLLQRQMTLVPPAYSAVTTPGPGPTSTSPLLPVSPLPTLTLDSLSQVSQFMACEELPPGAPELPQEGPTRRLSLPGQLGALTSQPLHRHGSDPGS
measurement protocol: HERG Patch Clamp EP (whole cell patch clamp, tail currents; single point at 10 μM and IC50)
Type: cell-based
assay setup: human, HEK cells stably overexpressing HERG, single point at 10 μM, HERG in HEK cells, read-out: HERG % Inhib. @ 10 μM
measurement kind: inhibition at 10 µM (%)
Write the number in % without appending the unit.

molecule="COc1ccc(CCN2C(=O)C3(CCN(S(C)(=O)=O)CC3)N(C(=O)C(F)(F)F)C2c2ccc(C3CC3)cc2)cc1 (stereo not shown)" measurement_kind="inhibition at 10 µM" recorded_measurement=73
molecule="COc1ccc(CCN2C(=O)C3(CCN(CC(=O)N(C)C)CC3)N(C)C2c2ccc(C3CC3)cc2)cc1 (stereo not shown)" measurement_kind="inhibition at 10 µM" recorded_measurement=43
molecule="COc1ccc(CCN2C(=O)C3(CCN(S(C)(=O)=O)CC3)NC2c2ccc(C(C)(C)C)cc2)cc1 (stereo not shown)" measurement_kind="inhibition at 10 µM" recorded_measurement=40
molecule="CCOC(=O)N1CCC2(CC1)C(=O)N(CCc1ccc(OC)cc1)C(c1ccc(C3CC3)cc1)N2C (stereo not shown)" measurement_kind="inhibition at 10 µM" recorded_measurement=65
molecule="CNC(=O)N1CCC2(CC1)C(=O)N(CCc1ccc(OC)cc1)C(c1ccc(C3CC3)cc1)N2C (stereo not shown)" measurement_kind="inhibition at 10 µM" recorded_measurement=25
molecule="COc1ccc(CCN2C(=O)C3(CCN(C(=O)n4ccnc4)CC3)N(C)C2c2ccc(C3CC3)cc2)cc1 (stereo not shown)" measurement_kind="inhibition at 10 µM" recorded_measurement=72

Moving on to another molecule below.
Reported inhibition at 10 µM for CN1C(c2ccc(C3CC3)cc2)N(CCCc2ccccc2)C(=O)C12CCN(S(C)(=O)=O)CC2 (stereo not shown) was 53
